The compounds listed here are annotated with their IC50.
- studyTarget: UniProtKB P00734
- protocol: Inhibition of human alpha-thrombin assessed as spectrozyme TH hydrolysis after 10 mins by spectrophotometric analysis
- reportedConditions: read-out: IC50
propertyName: IC50

CCOC(=O)c1c(C)oc2cc(OC)c(OS(=O)(=O)O)cc12 > 2500 µM
COc1cc2oc(C)c(C(=O)O)c2cc1OCc1oc2cc(OC)c(OS(=O)(=O)[O-])cc2c1C(=O)O.[Na+] 374 µM
CCOC(=O)c1c(C)oc2cc(OC(=O)c3ccc(OC)cc3)c(OS(=O)(=O)[O-])cc12.[Na+] 520 µM
CCOC(=O)c1c(C)oc2cc(OCC)c(OS(=O)(=O)O)cc12 20600 µM
CCOC(=O)c1c(CN2CCOCC2)oc2cc(OC)c(OS(=O)(=O)O)cc12 > 7000 µM
COCCOC(=O)c1c(C)oc2cc(OC)c(OCc3oc4cc(OC)c(OS(=O)(=O)[O-])cc4c3C(=O)OCCOC)cc12.[Na+] 375 µM

###

- studyTarget: Prothrombin (Homo sapiens)
- protocol: Inhibition of human alpha-thrombin assessed as spectrozyme TH hydrolysis after 10 mins by spectrophotometric analysis
- reportedConditions: read-out: pIC50 (converted)
IC50 listing for selected compounds.
propertyName: IC50 (µM)

COc1cc2oc(C)c(C(=O)OC(C)(C)C)c2cc1OCc1oc2cc(OC)c(OS(=O)(=O)[O-])cc2c1C(=O)OC(C)(C)C.[Na+] 7.24
CCOC(=O)c1c(C)oc2cc(OCc3oc4cc(OC)c(OS(=O)(=O)O)cc4c3C(=O)OCC)c(OS(=O)(=O)O)cc12 759
CCOC(=O)c1c(C)oc2cc(OCC)c(OS(=O)(=O)O)cc12 20000
CCOC(=O)c1c(C)oc2cc(OC)c(OCc3oc4cc(OS(=O)(=O)O)c(OS(=O)(=O)O)cc4c3C(=O)OCC)cc12 363
COC(=O)c1c(C)oc2cc(OC)c(OCc3oc4cc(OC)c(OS(=O)(=O)[O-])cc4c3C(=O)OC)cc12.[Na+] 37.2
CCOC(=O)c1c(COc2cc3c(C(=O)OCC)c(CN4CCOCC4)oc3cc2OC)oc2cc(OC)c(OS(=O)(=O)O)cc12 129

###

- studyTarget: Prothrombin (Homo sapiens)
- protocol: Inhibition of human alpha-thrombin assessed as spectrozyme TH hydrolysis after 10 mins by spectrophotometric analysis
- reportedConditions: read-out: IC50
propertyName: IC50

COc1cc2oc(C)c(C(=O)N3CCOCC3)c2cc1OS(=O)(=O)O > 2000 µM
COc1cc2oc(C)c(C(=O)OC(C)(C)C)c2cc1OCc1oc2cc(OC)c(OS(=O)(=O)[O-])cc2c1C(=O)OC(C)(C)C.[Na+] 7.3 µM
CCOC(=O)c1c(C)oc2cc(OC)c(OCc3oc4cc(OS(=O)(=O)O)c(OS(=O)(=O)O)cc4c3C(=O)OCC)cc12 365 µM
COc1cc2oc(C)c(C(=O)N3CCOCC3)c2cc1OCc1oc2cc(OC)c(OS(=O)(=O)[O-])cc2c1C(=O)N1CCOCC1.[Na+] > 7100 µM
CCOC(=O)c1c(C)oc2cc(OC(=O)N3CCOCC3)c(OS(=O)(=O)O)cc12 > 25000 µM
CCOC(=O)c1c(C)oc2cc(OCOC)c(OS(=O)(=O)[O-])cc12.[Na+] > 16000 µM
CCOC(=O)c1c(C)oc2cc(OC)c(OCc3oc4cc(OC)c(OS(=O)(=O)[O-])cc4c3C(=O)OCC)cc12.[Na+] 60 µM
CCOC(=O)c1c(COc2cc3c(C(=O)OCC)c(CN4CCOCC4)oc3cc2OC)oc2cc(OC)c(OS(=O)(=O)O)cc12 129 µM
COc1cc2oc(C)c(C(=O)OC(C)(C)C)c2cc1OS(=O)(=O)[O-].[Na+] > 3000 µM
COC(=O)c1c(C)oc2cc(OC)c(OCc3oc4cc(OC)c(OS(=O)(=O)[O-])cc4c3C(=O)OC)cc12.[Na+] 37 µM
COc1cc2oc(C)c(C(=O)N3CCCCC3)c2cc1OS(=O)(=O)O > 2000 µM
C=CCOC(=O)c1c(C)oc2cc(OC)c(OS(=O)(=O)O)cc12 > 3000 µM
COCCOC(=O)c1c(C)oc2cc(OC)c(OS(=O)(=O)O)cc12 > 2000 µM
COC(=O)c1c(C)oc2cc(OC)c(OS(=O)(=O)O)cc12 > 3000 µM
